Just for reference, patent US8586588B2 is where these values come from.

Target: rat histamine H3 receptor (Rattus norvegicus)
Construct: encoding the entire 445-amino-acid rat histamine H3 receptor; expressed in transfected cells
Assay Details: Rat H3 radioligand binding ([3H]-N-alpha-methylhistamine, CHO-A3 cell membranes, SPA)
Measurement Conditions: Table A, binding constant as letter class; read-out: Rat H3 Ki
Description: This was engineered into the pIRES-neo3 mammalian expression vector, which was stably transfected into the CHO-A3 cell line (Euroscreen, Belgium), followed by clonal selection by limiting dilution. […] Membranes were resuspended in 50 mM Tris HCl (pH 7.4), 5 mM MgCl2, 0.1% BSA. […] Non-specific binding was determined in the presence of 10 μM clobenpropit. Radioligand bound to receptor, and therefore in proximity to the scintillation beads, was measured using a MicroBeta scintillation counter.
pKi: −log10 of the molar value.
Below, each entry is listed with its recorded pKi.
Value Type: pKi

>>> print(df.to_string())
                           smiles_structure         result
0  CC(C)N1N=C(c2ccc(OCCCN3CCCCC3)cc2)CCC1=O  7.00 to 10.00
1  Cn1nc(-c2ccc(OCCCN3CCCCC3)cc2)c2c(c1=O)CCC2  7.00 to 10.00
2  Cn1nc(-c2ccc(OCC3CCN(C(=O)OC(C)(C)C)CC3)cc2)ccc1=O         < 6.00
3  O=c1ccc(-c2ccc(OCCCN3CCCCC3)c(F)c2)nn1-c1ccccc1   6.30 to 7.00
4  C[C@@H]1CCCN1CCCOc1ccc(-c2nn(Cc3ccc(Cl)cc3)c(=O)c3ccsc23)cc1  7.00 to 10.00
5  C[C@@H]1CCCN1CCCOc1ccc(-c2nn(C)c(=O)cc2-c2ccccc2)cc1  7.00 to 10.00
6         Cn1nc(-c2ccc(OC3CCNCC3)cc2)ccc1=O         < 6.00
7  CC(C)n1nc(-c2ccc(OCCCN3CCCC(C)(C)C3)cc2)c2sccc2c1=O         < 6.00
8  Cn1nc(-c2ccc(OCCCN3CCCCCC3)cc2)c2ccccc2c1=O  7.00 to 10.00

* * *

Target: rat histamine H3 receptor (Rattus norvegicus, UniProt Q9QYN8)
Construct: encoding the entire 445-amino-acid rat histamine H3 receptor; expressed in transfected cells
Sequence (Q9QYN8 whole entry): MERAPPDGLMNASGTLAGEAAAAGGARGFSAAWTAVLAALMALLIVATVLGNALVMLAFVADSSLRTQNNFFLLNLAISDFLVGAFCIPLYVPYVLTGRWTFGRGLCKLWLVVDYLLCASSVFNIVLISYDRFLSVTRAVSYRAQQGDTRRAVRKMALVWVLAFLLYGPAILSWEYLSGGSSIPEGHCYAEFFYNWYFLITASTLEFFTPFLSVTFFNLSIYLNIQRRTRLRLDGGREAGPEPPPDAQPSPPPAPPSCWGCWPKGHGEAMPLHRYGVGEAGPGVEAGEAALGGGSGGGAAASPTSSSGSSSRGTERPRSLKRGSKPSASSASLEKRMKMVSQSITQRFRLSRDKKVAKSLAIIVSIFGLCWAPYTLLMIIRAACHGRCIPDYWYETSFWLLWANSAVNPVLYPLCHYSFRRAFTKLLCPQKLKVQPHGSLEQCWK
Assay Details: Rat H3 radioligand binding ([3H]-N-alpha-methylhistamine, CHO-A3 cell membranes, SPA)
Measurement Conditions: Table A, binding constant as letter class; read-out: Rat H3 Ki
Procedure: This was engineered into the pIRES-neo3 mammalian expression vector, which was stably transfected into the CHO-A3 cell line (Euroscreen, Belgium), followed by clonal selection by limiting dilution. […] Membranes were resuspended in 50 mM Tris HCl (pH 7.4), 5 mM MgCl2, 0.1% BSA. […] Non-specific binding was determined in the presence of 10 μM clobenpropit. Radioligand bound to receptor, and therefore in proximity to the scintillation beads, was measured using a MicroBeta scintillation counter.
pKi: −log10 of the molar value.
Each record here notes measured pKi.
Value Type: pKi

>>> df
                                   molecule         result
0  CC(C)n1nc(-c2ccc(OCCCN3CCCC3)cc2)c2sccc2c1=O [Example 29]  7.00 to 10.00
1  C[C@@H]1CCCN1CCCOc1ccc(-c2ccc(=O)[nH]n2)cc1 [Example 11]  7.00 to 10.00
2  C[C@@H]1CCCN1CCCOc1ccc(-c2ccc(=O)n(C)n2)cc1F [Example 7]  7.00 to 10.00
3  C[C@@H]1CCCN1CCCOc1ccc(C2=NN(Cc3ccccc3)C(=O)CC2)cc1 [Example 17]  7.00 to 10.00
4  Cn1nc(-c2ccc(OCCN3CCCCC3)cc2)c2ccccc2c1=O [Example 51]         < 6.00
